Item-by-item account of pIC50
biological target: CSF-1R (Homo sapiens); test: Peptide (non-phosphorylated) assay, fluorescence polarization competition immunoassay; format: biochemical; conditions: 0.7 nM CSF-1R, 308 μM SYEGNSYTFIDPTQ peptide, 1 mM ATP, 80 min; mean of at least three determinations; read-out: c-fms Peptide IC50
Sequence (P07333 20-972): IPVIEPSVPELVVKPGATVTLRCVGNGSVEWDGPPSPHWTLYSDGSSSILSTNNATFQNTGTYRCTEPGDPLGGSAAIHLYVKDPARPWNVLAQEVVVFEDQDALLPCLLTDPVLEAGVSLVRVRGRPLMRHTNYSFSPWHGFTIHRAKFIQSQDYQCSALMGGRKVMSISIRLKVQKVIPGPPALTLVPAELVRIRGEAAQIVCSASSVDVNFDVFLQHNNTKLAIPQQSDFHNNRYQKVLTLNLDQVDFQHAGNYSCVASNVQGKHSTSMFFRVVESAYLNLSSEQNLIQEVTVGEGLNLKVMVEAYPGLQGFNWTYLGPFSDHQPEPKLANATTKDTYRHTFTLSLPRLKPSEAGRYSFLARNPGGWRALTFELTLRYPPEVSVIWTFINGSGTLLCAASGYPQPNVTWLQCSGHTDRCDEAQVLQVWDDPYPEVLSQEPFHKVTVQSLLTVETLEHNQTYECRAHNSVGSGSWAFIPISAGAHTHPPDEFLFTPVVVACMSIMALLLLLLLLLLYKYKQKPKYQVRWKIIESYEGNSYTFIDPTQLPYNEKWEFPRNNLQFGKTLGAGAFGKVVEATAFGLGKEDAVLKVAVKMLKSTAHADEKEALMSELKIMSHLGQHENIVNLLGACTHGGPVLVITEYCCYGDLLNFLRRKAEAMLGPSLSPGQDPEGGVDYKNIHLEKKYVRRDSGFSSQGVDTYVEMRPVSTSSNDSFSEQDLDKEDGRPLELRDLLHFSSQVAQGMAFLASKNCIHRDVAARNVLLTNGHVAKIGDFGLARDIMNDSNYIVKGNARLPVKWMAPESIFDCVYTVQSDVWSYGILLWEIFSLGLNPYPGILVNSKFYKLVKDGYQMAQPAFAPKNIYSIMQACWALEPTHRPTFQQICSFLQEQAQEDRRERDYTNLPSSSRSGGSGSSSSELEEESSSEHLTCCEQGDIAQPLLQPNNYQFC
In plain terms, pIC50 is the concentration in mol/L turned into minus its base-10 logarithm.

Answered examples (3):
{"molecule": "CN1CCN(CCc2ccc(Nc3ncc4c(=O)c(C(N)=O)cn(-c5ccc(Cl)cc5)c4n3)cc2)CC1", "value reported": 7.70}
{"molecule": "CONC(=O)c1cn(-c2ccc3c(c2)CCC3)c2nc(Nc3ccc(C(=O)NS(C)(=O)=O)cc3)ncc2c1=O", "value reported": 8.80}
{"molecule": "CCONC(=O)c1cn(C2CCCCC2)c2nc(Nc3ccc(CCN4CCCC4)cc3)ncc2c1=O", "value reported": 9.72}

# get_value(readout='pIC50', item= CCOC(=O)CN1CCC(c2ccc(Nc3ncc4c(=O)c(C(=O)NOC)cn(-c5ccc6c(c5)CCC6)c4n3)cc2)CC1 [Cpd 218] )
8.92

# get_value(readout='pIC50', item= CONC(=O)c1cn(-c2ccc3c(c2)CCC3)c2nc(Nc3ccc4[nH]cnc4c3)ncc2c1=O )
6.50

# get_value(readout='pIC50', item= CCc1ccc(-n2cc(C(=O)NOC)c(=O)c3cnc(Nc4ccc5c(c4)CCN5C(C)=O)nc32)cc1 )
9.52

# get_value(readout='pIC50', item= CC(C)ONC(=O)c1cn(-c2ccc3c(c2)CCC3)c2nc(Nc3ccc(S(=O)(=O)N(C)C)cc3)ncc2c1=O )
7.80

# get_value(readout='pIC50', item= COCCOc1cccc(Nc2ncc3c(=O)c(C(=O)NOC)cn(-c4ccc5c(c4)CCC5)c3n2)c1 )
9.02

# get_value(readout='pIC50', item= CCc1cccc(-n2cc(C(=O)NOC)c(=O)c3cnc(Nc4ccc(C5CCN(C)CC5)cc4)nc32)c1 )
9.44

# get_value(readout='pIC50', item= CONC(=O)c1cn(C2CCCCC2)c2nc(Nc3ccc(CCN4CCOCC4)cc3)ncc2c1=O )
8.52

# get_value(readout='pIC50', item= CONC(=O)c1cn(-c2ccc(OC(F)(F)F)cc2)c2nc(Nc3ccc(C4CCN(CCO)CC4)cc3)ncc2c1=O )
8.68

# get_value(readout='pIC50', item= CONC(=O)c1cn(-c2ccc(OC(F)(F)F)cc2)c2nc(Nc3ccc(C4CCN(C)CC4)cc3)ncc2c1=O )
9.18

# get_value(readout='pIC50', item= CONC(=O)c1cn(-c2ccc3c(c2)CCC3)c2nc(Nc3ccc(CCN4CCN(CC(=O)O)CC4)cc3)ncc2c1=O )
9.03

# get_value(readout='pIC50', item= CCc1ccc(-n2cc(C(=O)NOC)c(=O)c3cnc(Nc4ccc(CCN5CCCC(F)(F)C5)cc4)nc32)cc1 )
9.14

# get_value(readout='pIC50', item= CONC(=O)c1cn(-c2ccc3c(c2)CCC3)c2nc(Nc3cccc(CCN4CCCC4)c3)ncc2c1=O )
9.19

# get_value(readout='pIC50', item= CONC(=O)c1cn(-c2ccc3c(c2)CCC3)c2nc(Nc3ccc(CCN4CC(F)(F)C4)cc3)ncc2c1=O )
8.80

# get_value(readout='pIC50', item= CCONC(=O)c1cn(-c2ccc(CC)cc2)c2nc(Nc3ccc(C4CCN(CC)CC4)cc3)ncc2c1=O )
9.70

# get_value(readout='pIC50', item= CONC(=O)c1cn(-c2ccc3c(c2)CCC3)c2nc(Nc3cccc(C4(O)CCN(C)CC4)c3)ncc2c1=O )
9.06

# get_value(readout='pIC50', item= CCc1ccc(-n2cc(C(=O)NOC)c(=O)c3cnc(Nc4ccc5cc[nH]c5c4)nc32)cc1 )
8.89

# get_value(readout='pIC50', item= CCONC(=O)c1cn(C2CCCCC2)c2nc(Nc3ccc(C[C@H]4COC(=O)N4)cc3)ncc2c1=O )
8.52
